assay-system: native mouse MET on living cells (mouse, UniProt P16056 25-1379)
procedure-details: cell-based or functional assay
Overview of recorded branches per spheroid, MLP29 cells, 12.5 nM for various binders
assay-metric: branches per spheroid, MLP29 cells, 12.5 nM (branches)

binder	recorded-number
72F8 chimeric llama-human IgG1 mAb (antibody, V domains shown, llama VH on human IgG1 CH1-CH2-CH3, llama VL on human lambda CL) VH: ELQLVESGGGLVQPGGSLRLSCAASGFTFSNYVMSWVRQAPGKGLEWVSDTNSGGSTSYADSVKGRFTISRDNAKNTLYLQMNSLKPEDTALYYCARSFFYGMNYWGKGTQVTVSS VL: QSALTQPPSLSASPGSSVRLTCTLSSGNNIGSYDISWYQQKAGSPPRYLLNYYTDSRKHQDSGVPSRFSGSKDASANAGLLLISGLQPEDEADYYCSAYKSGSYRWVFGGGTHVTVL	18.7
71G3 chimeric llama-human IgG1 mAb (antibody, V domains shown, llama VH on human IgG1 CH1-CH2-CH3, llama VL on human lambda CL) VH: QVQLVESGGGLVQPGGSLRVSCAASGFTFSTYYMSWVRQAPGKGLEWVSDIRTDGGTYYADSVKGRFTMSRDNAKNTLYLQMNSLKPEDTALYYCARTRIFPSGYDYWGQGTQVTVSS VL: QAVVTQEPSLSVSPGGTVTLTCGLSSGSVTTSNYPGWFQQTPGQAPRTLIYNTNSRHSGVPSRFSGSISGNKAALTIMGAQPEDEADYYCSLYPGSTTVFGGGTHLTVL	29.3
